# Test system: mPer2Luc MEF
# ASSAY OVERVIEW: PER2::LUC luminescence relative to vehicle control (fold of vehicle); higher = higher PER2::LUC reporter signal
# SETUP CONDITIONS: time after treatment 24 h; 10 µM
The full ranking holds about 5,300 compounds; the median of “PER2::LUC luminescence relative to vehicle control” is about 0.96, and the highest 2% start at about 1.3. Only a selection was taken, and the highest values are over-represented in it overall.
Quick list: PER2::LUC luminescence per entry.
MEASURED ENDPOINT: PER2::LUC luminescence

>>> recorded_measurement("O=C(O)c1ccccc1")
0.918
>>> recorded_measurement("COc1ccc(-c2cc(=O)c3c(O)c(OC)c(OC)c(OC)c3o2)cc1")
1.03
>>> recorded_measurement("COc1ccc(-c2cc(=O)c3c(O)cc(OC)cc3o2)cc1")
1.29
>>> recorded_measurement("Cc1cccn2c(=O)c(C=C(C#N)c3nc4ccccc4s3)c(Oc3ccc(F)cc3)nc12")
0.941
>>> recorded_measurement("CN1c2ccccc2C(=O)N2CCc3c([nH]c4ccccc34)C21 (stereo in doubt)")
0.589
>>> recorded_measurement("CNc1ccccc1C(=O)N1CCc2c([nH]c3ccccc23)C1=O")
1.56
>>> recorded_measurement("Cc1ccccc1-n1c([C@H](C)Nc2nc(N)nc3nc[nH]c23)nc2cccc(C)c2c1=O")
0.801
>>> recorded_measurement("C[C@H]1CC[C@@H](C(C)(C)O)CC2=C1CC[C@@H]2C")
1.46
>>> recorded_measurement("O=c1c(N=Nc2ccc(CS(=O)(=O)O)cc2)c(-c2ccc(C[N+](=O)[O-])cc2)[nH]n1-c1ccccc1")
1.09
>>> recorded_measurement("Cc1ccc2c(Nc3ccc(Cl)cc3)nccc2c1Nc1ncccc1-c1ncnc2nc[nH]c12")
0.42
>>> recorded_measurement("CN(C)CC1CCC2=C(C1=O)C(c1ccc(Cl)c(Cl)c1)C1=C(CCC(CN(C)C)C1=O)O2 (configuration not stated)")
1.15
>>> recorded_measurement("O=c1cc(-c2cc(O)c(O)c(O)c2)oc2cc(O)cc(O)c12")
0.957
>>> recorded_measurement("COc1ccc(-c2cc(=O)c3c(O)cc(O)cc3o2)cc1")
1.41
>>> recorded_measurement("O=C(OOC(=O)c1ccccc1)c1ccccc1")
1.2
>>> recorded_measurement("COC(=O)C1=C(C)NC(C)=C(C(=O)OCCN(C)Cc2ccccc2)C1c1cccc([N+](=O)[O-])c1 (configuration not stated)")
1.07
>>> recorded_measurement("COc1cc(O)c2c(=O)cc(-c3ccc(O)cc3)oc2c1")
1.21
>>> recorded_measurement("CN(NC(=O)CC(=O)NN(C)C(=S)c1ccccc1)C(=S)c1ccccc1")
1.68
>>> recorded_measurement("N#Cc1cc(-c2ccnc(Nc3ccc(N4CCOCC4)cc3)n2)ccc1OC1CCOCC1")
0.507
>>> recorded_measurement("OC1c2ccccc2N=C2CCCN21 (configuration not stated)")
0.854
>>> recorded_measurement("COc1ccc(-c2cc(=O)c3c(O)cc(O)cc3o2)cc1O")
0.933
>>> recorded_measurement("C#CCN(C)CCCOc1ccc(Cl)cc1Cl")
1.23
>>> recorded_measurement("COc1ccc2[nH]cc(CCNC(=O)C3CC3)c2c1")
0.901
